Ref: patent US8003785B2

biological target: PLK1 (Homo sapiens); construct: Full-length, active GST-PLK1 is purified from Sf9 insect cells; made in house; host or cells: Sf9 insect cells; assay: Biochemical Characterization Assay: HTRF kinase assay, GST-PLK1 phosphorylation of GST-p53; settings: GST-PLK1, GST-p53 substrate, ATP
Sequence (P53350 whole entry): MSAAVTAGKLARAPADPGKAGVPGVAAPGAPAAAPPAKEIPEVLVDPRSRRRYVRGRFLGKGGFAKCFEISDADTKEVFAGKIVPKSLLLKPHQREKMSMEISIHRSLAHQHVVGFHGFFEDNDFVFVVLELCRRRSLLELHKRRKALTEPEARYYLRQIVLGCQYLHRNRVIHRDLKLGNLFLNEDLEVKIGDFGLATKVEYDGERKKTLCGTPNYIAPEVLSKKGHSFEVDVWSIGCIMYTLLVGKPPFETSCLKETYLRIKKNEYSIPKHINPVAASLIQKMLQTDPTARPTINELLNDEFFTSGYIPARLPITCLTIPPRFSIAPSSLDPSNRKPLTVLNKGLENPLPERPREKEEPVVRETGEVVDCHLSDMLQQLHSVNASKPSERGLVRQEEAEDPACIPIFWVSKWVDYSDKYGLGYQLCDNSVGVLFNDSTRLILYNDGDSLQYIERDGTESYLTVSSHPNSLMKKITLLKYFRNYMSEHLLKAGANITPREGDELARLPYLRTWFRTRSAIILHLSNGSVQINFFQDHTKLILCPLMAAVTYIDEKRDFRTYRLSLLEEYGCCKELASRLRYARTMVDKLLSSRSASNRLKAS
pIC50: −log10 of the molar value.
readout_label: pIC50

Entry COc1cc(C(=O)NC2CCOCC2)ccc1Nc1ncc2c(n1)N(C1CCCC1)CC(F)(F)C(=O)N2C [Example I-124] , pIC50 reported as 7.30 to 9.00

According to the records, this compound CCCN1C(=O)C(F)(F)CN(C2CCCC2)c2nc(Nc3ccc(C(=O)NC)cc3)ncc21 [Example I-146] displays pIC50 of 5.30 to 6.30

# compound COc1cc(C(=O)NCCN(C)C)ccc1Nc1ncc2c(n1)N(C1CCCC1)CC(F)(F)C(=O)N2C [Example I-52] ; its pIC50 = 7.30 to 9.00

The measured pIC50 associated with COc1cc(C(=O)NC2CC(C)(C)NC(C)(C)C2)ccc1Nc1ncc2c(n1)N(C1CCCC1)CC(F)(F)C(=O)N2C [Example I-65] reads 7.30 to 9.00

response.value for COc1cc(C(=O)NCCCN2CCCCC2)ccc1Nc1ncc2c(n1)N(C1CCCC1)CC(F)(F)C(=O)N2C [Example I-84] (field: pIC50) = 7.30 to 9.00

Continuing:
// pIC50 value for COc1cc(C(=O)NC(C)c2ccccc2)ccc1Nc1ncc2c(n1)N(C1CCCC1)CC(F)(F)C(=O)N2C (racemic) [Example I-37] : 6.30 to 7.29

// sample CN(C)CCCNC(=O)c1ccc(Nc2ncc3c(n2)N(C2CCC2)CC(F)(F)C(=O)N3C)cc1 [Example I-19] , its pIC50 was 7.30 to 9.00

Notebook: COc1cc(C(=O)N(C)C)ccc1Nc1ncc2c(n1)N(C1CCCC1)CC(F)(F)C(=O)N2C [Example I-125] , pIC50 read as 7.30 to 9.00

Given item COc1cc(C(=O)NC2CCN(c3ccccn3)CC2)ccc1Nc1ncc2c(n1)N(C1CCCC1)CC(F)(F)C(=O)N2C [Example I-108] , the value recorded as its pIC50 is 7.30 to 9.00

Briefly, pIC50 measured for COc1cc(C(=O)NC2CN(C)C2)ccc1Nc1ncc2c(n1)N(C1CCCC1)CC(F)(F)C(=O)N2C [Example I-99] : 7.30 to 9.00

The value of pIC50 measured for the compound COc1cc(C(=O)NC2CCN(C(C)C)CC2)ccc1Nc1ncc2c(n1)N(C1CCCC1)CC(F)(F)C(=O)N2C [Example I-64] turned out to be 7.30 to 9.00

Reported pIC50 for CCCN1C(=O)C(F)(F)CN(C2CCCC2)c2nc(Nc3ccc(C(=O)NC4CCOCC4)cc3)ncc21 [Example I-149] was 5.30 to 6.30
